experiment: M. tuberculosis growth inhibition, HTS (AID 449762);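 further: bacterial growth assessed after seven days of incubation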; conditions: M. tuberculosis H37Rv growth inhibition, 7H9 media; at 25 µM; hits give high values
Out of some 330,000 compounds screened, about 1,900 (0.58%) were called active. About 4% were inconclusive and are not listed. These entries were drawn from the full list. Potency and affinity values are given separately.
Observable: inhibition (%)
Report only the number, with the unit % understood.

Consider the worked cases shown below.
Cc1ccc(C2C3=C(CC(C)(C)CC3=O)OC3=C2C(=O)CC(C)(C)C3)cc1
-4.24
O=Cc1cn(-c2ccccc2)nc1-c1cccnc1
-1.66
O=C(C1CCC1)N1CCN(S(=O)(=O)c2ccc(F)cc2)CC1
-11
COc1cccc(CN(C)C(=O)c2ccc3c(=O)n4c(nc3c2)CCC4)c1OC
1.09
Cc1nc2nc3c(c(=O)n2[nH]1)CCC3
-2.58
C[C@@H](NCCc1ccc(O)cc1)[C@@H](O)c1ccc(O)cc1
-1.64

## Input For Cn1cc(C=C2C(=O)NC(=O)NC2=O)c2ccccc21 , write its inhibition.
## Output -7.12

## Input For COC(=O)c1cc(OC)c(OC)cc1NC(=O)c1c(-c2ccccc2Cl)noc1C , write its inhibition.
## Output -3.97

## Input For Cc1ccc(N(CC(=O)NCc2ccco2)C(=O)CCC(=O)Nc2nccs2)c(C)c1 , write its inhibition.
## Output 1.4

## Input For CC(=O)Nc1ccc(-c2csc(Nc3ncccn3)n2)cc1 , write its inhibition.
## Output 10.8

// data source = PubChem BioAssay AID449762
